IC50 listing for selected molecules.
study system: PDGF-receptor beta enzyme comprising the tyrosine kinase domain (Homo sapiens)
Construct: from amino acid 545 to 1106 of GenBank Access NO: AAA36427
Sequence (P09619 545-1106): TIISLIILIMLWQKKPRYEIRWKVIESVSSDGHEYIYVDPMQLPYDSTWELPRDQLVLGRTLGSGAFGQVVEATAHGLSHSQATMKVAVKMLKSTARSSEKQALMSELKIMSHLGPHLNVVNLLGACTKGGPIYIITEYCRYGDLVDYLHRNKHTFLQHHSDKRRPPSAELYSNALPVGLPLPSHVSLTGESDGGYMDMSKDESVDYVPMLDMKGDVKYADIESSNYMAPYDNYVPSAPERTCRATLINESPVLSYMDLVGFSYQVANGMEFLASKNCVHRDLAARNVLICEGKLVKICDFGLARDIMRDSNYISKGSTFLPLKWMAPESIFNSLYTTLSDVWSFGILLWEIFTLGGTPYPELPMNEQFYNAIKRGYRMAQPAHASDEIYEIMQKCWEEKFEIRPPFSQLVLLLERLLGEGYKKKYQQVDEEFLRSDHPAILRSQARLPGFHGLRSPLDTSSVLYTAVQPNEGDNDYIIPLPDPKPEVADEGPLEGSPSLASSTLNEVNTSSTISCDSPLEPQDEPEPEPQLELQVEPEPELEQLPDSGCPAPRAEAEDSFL
procedure text: Inhibition of PDGF-receptor kinase activity (cell-free, PLC1 peptide, 33P Flashplate)
Type: biochemical
test conditions: PDGF-R kinase activity; read-out: IC50
observable: IC50 (nM)

molecule: c1cncc(Nc2[nH]nc3c2Cc2cc4c(cc2-3)OCO4)c1
display unit: nM
measured result: 176
//
molecule: COCCCOc1ccc2c(c1)Cc1c-2n[nH]c1Nc1ccccc1
display unit: nM
measured result: 13.7
//
molecule: COc1cc2c(cc1OCC(O)CO)Cc1c-2n[nH]c1Nc1ccc(F)c(Cl)c1 (stereo not shown)
display unit: nM
measured result: 10
//
molecule: CCC1c2cc(OC)c(OC)cc2-c2[nH]nc(Nc3cccc(Br)c3)c21 (single isomer, unassigned) [Compound 482]
display unit: nM
measured result: 38.6
